Attribution: the supplement of paper PMC5998384

# System: HeLa Kyoto
# test-description: solubility in G1/S (NP-40 vs SDS abundance) (log2 ratio); higher = more soluble
# run-parameters: cell cycle stage: G1/S
measurement-name: solubility in G1/S (log2)
// response body must contain only the number

Use the examples below as a reference point.
What solubility in G1/S (log2) value was documented for this sequence, MVNPGSSSQPPPVTAGSLSWKRCAGCGGKIADRFLLYAMDSYWHSRCLKCSCCQAQLGDIGTSCYTKSGMILCRNDYIRLFGNSGACSACGQSIPASELVMRAQGNVYHLKCFTCSTCRNRLVPGDRFHYINGSLFCEHDRPTALINGHLNSLQSNPLLPDQKVC [LMO4] ?
-0.938

What solubility in G1/S (log2) value was documented for this sequence, MAMRQTPLTCSGHTRPVVDLAFSGITPYGYFLISACKDGKPMLRQGDTGDWIGTFLGHKGAVWGATLNKDATKAATAAADFTAKVWDAVSGDELMTLAHKHIVKTVDFTQDSNYLLTGGQDKLLRIYDLNKPEAEPKEISGHTSGIKKALWCSEDKQILSADDKTVRLWDHATMTEVKSLNFNMSVSSMEYIPEGEILVITYGRSIAFHSAVSLDPIKSFEAPATINSASLHPEKEFLVAGGEDFKLYKYDYNSGEELESYKGHFGPIHCVRFSPDGELYASGSEDGTLRLWQTVVGKTYGLWKCVLPEEDSGELAKPKIGFPETTEEELEEIASENSDCIFPSAPDVKA [STRAP] ?
0.14

Next:
What solubility in G1/S (log2) value was documented for this sequence, MGIQGGSVLFGLLLVLAVFCHSGHSLQCYNCPNPTADCKTAVNCSSDFDACLITKAGLQVYNKCWKFEHCNFNDVTTRLRENELTYYCCKKDLCNFNEQLENGGTSLSEKTVLLLVTPFLAAAWSLHP [CD59] ?
-0.814

====

// values below are reported melting temperature
# Test system: HeLa Kyoto
# test-description: melting temperature (median over replicates), in situ; higher = more thermally stable
# run-parameters: cell cycle stage: mitosis
I only need the number, in °C, no unit after it.

What melting temperature value was documented for this sequence, MAESDWDTVTVLRKKGPTAAQAKSKQAILAAQRRGEDVETSKKWAAGQNKQHSITKNTAKLDRETEELHHDRVTLEVGKVIQQGRQSKGLTQKDLATKINEKPQVIADYESGRAIPNNQVLGKIERAIGLKLRGKDIGKPIEKGPRAK [EDF1] ?
52.7

Next:
What melting temperature value was documented for this sequence, MAALGGDGLRLLSVSRPERPPESAALGGLGPGLCCWVSVFSCLSLACSYVGSLYVWKSELPRDHPAVIKRRFTSVLVVSSLSPLCVLLWRELTGIQPGTSLLTLMGFRLEGIFPAALLPLLLTMILFLGPLMQLSMDCPCDLADGLKVVLAPRSWARCLTDMRWLRNQVIAPLTEELVFRACMLPMLAPCMGLGPAVFTCPLFFGVAHFHHIIEQLRFRQSSVGNIFLSAAFQFSYTAVFGAYTAFLFIRTGHLIGPVLCHSFCNYMGFPAVCAALEHPQRRPLLAGYALGVGLFLLLLQPLTDPKLYGSLPLCVLLERAGDSEAPLCS [RCE1] ?
55.3

What melting temperature value was documented for this sequence, MSVRVARVAWVRGLGASYRRGASSFPVPPPGAQGVAELLRDATGAEEEAPWAATERRMPGQCSVLLFPGQGSQVVGMGRGLLNYPRVRELYAAARRVLGYDLLELSLHGPQETLDRTVHCQPAIFVASLAAVEKLHHLQPSVIENCVAAAGFSVGEFAALVFAGAMEFAEGLYAVKIRAEAMQEASEAVPSGMLSVLGQPQSKFNFACLEAREHCKSLGIENPVCEVSNYLFPDCRVISGHQEALRFLQKNSSKFHFRRTRMLPVSGAFHTRLMEPAVEPLTQALKAVDIKKPLVSVYSNVHAHRYRHPGHIHKLLAQQLVSPVKWEQTMHAIYERKKGRGFPQTFEVGPGRQLGAILKSCNMQAWKSYSAVDVLQTLEHVDLDPQEPPR [MT] ?
56.6
